- assay target: hNav1.5 (INa) (Homo sapiens, UniProt Q14524)
- Construct: expressed in transfected cells; host or cells: CHO or HEK293 cells
- Sequence (Q14524 whole entry): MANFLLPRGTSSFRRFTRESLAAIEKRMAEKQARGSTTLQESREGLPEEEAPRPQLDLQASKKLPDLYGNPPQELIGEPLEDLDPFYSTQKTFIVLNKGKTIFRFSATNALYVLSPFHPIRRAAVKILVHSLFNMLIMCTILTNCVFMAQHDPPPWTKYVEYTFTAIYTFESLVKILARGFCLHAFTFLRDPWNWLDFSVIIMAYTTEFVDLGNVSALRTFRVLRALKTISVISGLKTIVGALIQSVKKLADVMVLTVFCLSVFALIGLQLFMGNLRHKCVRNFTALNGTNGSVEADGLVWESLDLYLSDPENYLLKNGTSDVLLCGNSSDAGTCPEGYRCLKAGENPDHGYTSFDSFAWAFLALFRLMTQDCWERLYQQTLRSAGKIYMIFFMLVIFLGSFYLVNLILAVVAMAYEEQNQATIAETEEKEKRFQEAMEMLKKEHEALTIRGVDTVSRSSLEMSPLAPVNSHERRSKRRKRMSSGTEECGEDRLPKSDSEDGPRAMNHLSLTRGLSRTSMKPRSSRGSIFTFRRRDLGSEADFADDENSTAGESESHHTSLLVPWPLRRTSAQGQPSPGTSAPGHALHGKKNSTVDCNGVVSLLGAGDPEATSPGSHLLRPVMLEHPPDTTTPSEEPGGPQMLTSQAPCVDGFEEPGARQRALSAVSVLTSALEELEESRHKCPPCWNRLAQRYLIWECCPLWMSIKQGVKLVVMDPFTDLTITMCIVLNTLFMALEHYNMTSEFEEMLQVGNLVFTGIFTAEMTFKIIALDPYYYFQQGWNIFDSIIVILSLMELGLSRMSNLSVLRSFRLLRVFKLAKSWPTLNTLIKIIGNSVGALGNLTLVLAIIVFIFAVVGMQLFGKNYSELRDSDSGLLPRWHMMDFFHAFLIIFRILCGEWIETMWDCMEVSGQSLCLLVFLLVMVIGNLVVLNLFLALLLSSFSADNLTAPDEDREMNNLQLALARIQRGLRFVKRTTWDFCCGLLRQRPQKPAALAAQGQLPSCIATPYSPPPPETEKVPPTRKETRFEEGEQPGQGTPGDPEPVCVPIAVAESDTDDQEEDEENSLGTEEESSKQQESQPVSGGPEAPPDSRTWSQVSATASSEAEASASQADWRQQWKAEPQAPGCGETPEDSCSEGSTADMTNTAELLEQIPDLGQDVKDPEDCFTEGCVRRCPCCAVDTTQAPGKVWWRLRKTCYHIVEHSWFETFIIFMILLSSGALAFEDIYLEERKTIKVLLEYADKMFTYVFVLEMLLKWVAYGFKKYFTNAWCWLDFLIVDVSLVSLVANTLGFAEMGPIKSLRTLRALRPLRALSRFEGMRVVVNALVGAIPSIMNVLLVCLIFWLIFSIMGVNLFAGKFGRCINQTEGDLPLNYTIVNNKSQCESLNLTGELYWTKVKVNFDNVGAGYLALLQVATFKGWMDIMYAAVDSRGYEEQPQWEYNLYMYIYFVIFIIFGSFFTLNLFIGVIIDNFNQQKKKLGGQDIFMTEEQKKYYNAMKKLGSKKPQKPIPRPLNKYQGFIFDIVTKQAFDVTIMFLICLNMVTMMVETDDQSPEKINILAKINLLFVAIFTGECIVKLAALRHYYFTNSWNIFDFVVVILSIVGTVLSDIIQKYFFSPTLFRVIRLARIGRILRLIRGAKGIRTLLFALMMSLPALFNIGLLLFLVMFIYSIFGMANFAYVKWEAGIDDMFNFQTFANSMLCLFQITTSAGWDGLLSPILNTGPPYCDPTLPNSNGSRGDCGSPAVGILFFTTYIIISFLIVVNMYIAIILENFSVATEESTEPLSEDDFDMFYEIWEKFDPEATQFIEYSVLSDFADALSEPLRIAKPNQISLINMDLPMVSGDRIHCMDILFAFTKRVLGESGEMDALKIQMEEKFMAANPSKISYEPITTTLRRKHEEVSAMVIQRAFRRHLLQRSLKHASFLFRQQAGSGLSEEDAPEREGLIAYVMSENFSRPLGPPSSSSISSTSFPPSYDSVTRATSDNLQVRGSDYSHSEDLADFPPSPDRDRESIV
- assay info: INa current, PatchXpress 7000A planar voltage clamp
- Format: cell-based
- setup conditions: pulsing rate 0.2 Hz
quantity: pIC50
Answers are plain numbers, as −log10 of the molar value.

According to the records, this compound C[C@]12CC=C3C=C4CC[C@@H](N5CCC5)C[C@]45CCC3(O5)[C@@H]1CC[C@@H]2c1ccc2ccncc2c1 displays pIC50 of 4.85

---

- assay info: Pharmacokinetic profile in mice (plasma, LC-MS/MS)
- setup conditions: male, CD-1, mouse, plasma, po, 10 mg/kg
quantity: AUC(0-inf) (ng·h/mL)
Numbers only, in ng·h/mL.

response.value for C[C@]12CC=C3C=C4CC[C@@H](N5CC[C@@H](N)C5)C[C@]45CC[C@]3(O5)[C@@H]1CC[C@@H]2c1ccc2ccncc2c1 [Compound B] (field: AUC(0-inf)) = 1060

---

- assay target: UniProt P49336
- Sequence (P49336 whole entry): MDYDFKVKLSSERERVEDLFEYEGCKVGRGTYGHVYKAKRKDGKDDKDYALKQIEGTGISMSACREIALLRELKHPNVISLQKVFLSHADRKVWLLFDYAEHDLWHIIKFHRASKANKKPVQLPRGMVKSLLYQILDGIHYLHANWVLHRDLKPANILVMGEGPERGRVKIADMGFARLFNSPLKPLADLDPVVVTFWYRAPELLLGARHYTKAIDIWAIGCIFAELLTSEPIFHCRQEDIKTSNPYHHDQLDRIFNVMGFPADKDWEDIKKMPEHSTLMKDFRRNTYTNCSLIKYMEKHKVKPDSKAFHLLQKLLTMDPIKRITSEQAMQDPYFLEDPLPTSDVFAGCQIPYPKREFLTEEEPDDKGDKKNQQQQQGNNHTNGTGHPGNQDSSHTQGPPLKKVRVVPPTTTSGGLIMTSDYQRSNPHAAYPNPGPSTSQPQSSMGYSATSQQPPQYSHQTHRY
- Sequence (P24863 whole entry partner): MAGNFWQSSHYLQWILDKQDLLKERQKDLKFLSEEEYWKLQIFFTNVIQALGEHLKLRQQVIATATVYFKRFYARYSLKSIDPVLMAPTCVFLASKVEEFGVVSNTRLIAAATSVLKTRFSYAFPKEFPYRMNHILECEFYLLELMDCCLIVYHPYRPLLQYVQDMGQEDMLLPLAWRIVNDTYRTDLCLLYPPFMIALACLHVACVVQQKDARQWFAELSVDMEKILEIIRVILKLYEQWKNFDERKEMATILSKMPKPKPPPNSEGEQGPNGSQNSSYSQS
- assay info: Western blot study of CDK8 inhibition
- Format: cell-based
- setup conditions: decreased staining results from inhibition of the target
quantity: inhibition of CDK8 in Western blot

Notebook: C[C@]12CC=C3C=C4CC[C@@H](N5C[C@H](O)[C@@H](O)C5)C[C@]45CC[C@]3(O5)[C@@H]1CC[C@@H]2c1ccc2ccncc2c1 [Compound D] , inhibition of CDK8 in Western blot read as dose dependent response

Entry C[C@]12CC=C3C=C4CC[C@@H](N5CC(N)C5)C[C@]45CC[C@]3(O5)[C@@H]1CC[C@@H]2c1ccc2ccncc2c1 [Compound C] — recorded inhibition of CDK8 in Western blot = dose dependent response

What the record says about C[C@]12CC=C3C=C4CC[C@@H](N5CC[C@@H](N)C5)C[C@]45CC[C@]3(O5)[C@@H]1CC[C@@H]2c1ccc2ccncc2c1 [Compound B] : inhibition of CDK8 in Western blot is dose dependent response

Data point: C[C@]12CC=C3C=C4CC[C@@H](O)C[C@]45CC[C@]3(O5)[C@@H]1CC[C@@H]2c1ccc2ccncc2c1 [Compound A] ; inhibition of CDK8 in Western blot = dose dependent response

---

- assay target: hERG potassium channel (Homo sapiens)
- assay info: in vitro
- setup conditions: human, Mean % hERG Inhibition
quantity: inhibition at 30 µM (%)
Numbers only, in %.

Some solved entries appear below for comparison.
Form: molecule = C[C@]12CC=C3C=C4CC[C@@H](N5CC[C@@H](N)C5)C[C@]45CC[C@]3(O5)[C@@H]1CC[C@@H]2c1ccc2ccncc2c1 ; inhibition at 30 µM = 82.7

inhibition at 30 µM recorded for this molecule, C[C@]12CC=C3C=C4CC[C@@H](N5C[C@H](O)[C@@H](O)C5)C[C@]45CC[C@]3(O5)[C@@H]1CC[C@@H]2c1ccc2ccncc2c1 , is 91.3

Lab note: each molecule below needs its inhibition at 30 µM filled in.
1. C[C@]12CC=C3C=C4CC[C@@H](N5CC(N)C5)C[C@]45CC[C@]3(O5)[C@@H]1CC[C@@H]2c1ccc2ccncc2c1
2. C[C@]12CC=C3C=C4CC[C@@H](O)C[C@]45CC[C@]3(O5)[C@@H]1CC[C@@H]2c1ccc2ccncc2c1
3. C[C@]12CC=C3C=C4CC[C@@H](N5CCCC5)C[C@]45CCC3(O5)[C@@H]1CC[C@@H]2c1ccc2ccncc2c1

Response line:
[75.5, 43.7, 98.8]

---

- assay target: UniProtKB Q12809
- assay info: in vitro
- setup conditions: human, Mean % hERG Inhibition
Think of 50% as a floor: if inhibition at 10 µM stands on it or above, it is MET; beneath it, NOT MET.

Reference set (3 entries):
Prompt line: Reported inhibition at 10 µM reaches at least 50% for C[C@]12CC=C3C=C4CC[C@@H](N5C[C@H](O)[C@@H](O)C5)C[C@]45CC[C@]3(O5)[C@@H]1CC[C@@H]2c1ccc2ccncc2c1 [Compound D] ?
Response line: MET

Prompt line: Does the reported inhibition at 10 µM for C[C@]12CC=C3C=C4CC[C@@H](N5CCCC5)C[C@]45CCC3(O5)[C@@H]1CC[C@@H]2c1ccc2ccncc2c1 [Compound E] fall at or above the 50% mark?
Response line: MET

Prompt line: Given the entry C[C@]12CC=C3C=C4CC[C@@H](O)C[C@]45CC[C@]3(O5)[C@@H]1CC[C@@H]2c1ccc2ccncc2c1 [Compound A] , answer whether its inhibition at 10 µM meets or surpasses 50%.
Response line: NOT MET

Please look at the following molecule next.
Prompt line: Could you tell me if the measured inhibition at 10 µM of C[C@]12CC=C3C=C4CC[C@@H](N5CC[C@@H](N)C5)C[C@]45CC[C@]3(O5)[C@@H]1CC[C@@H]2c1ccc2ccncc2c1 [Compound B] reaches 50% or more?
Response line: NOT MET

---

Can you tell me number of targets with ≥75% inhibition for the items I'm about to list?
- Tested on: off-targets (Panlabs)
- assay info: Panlab off-target assay panel
- Assay type: binding
- setup conditions: 10 μM; Safety Panel = 28 binding assays (Eurofins Panlabs)
Numbers only.

Form field number of targets with ≥75% inhibition, entry C[C@]12CC=C3C=C4CC[C@@H](N5CC[C@@H](N)C5)C[C@]45CC[C@]3(O5)[C@@H]1CC[C@@H]2c1ccc2ccncc2c1 : 8

Please state number of targets with ≥75% inhibition for every compound in the list that follows.
1. C[C@]12CC=C3C=C4CC[C@@H](N5C[C@H](O)[C@@H](O)C5)C[C@]45CC[C@]3(O5)[C@@H]1CC[C@@H]2c1ccc2ccncc2c1
2. C[C@]12CC=C3C=C4CC[C@@H](O)C[C@]45CC[C@]3(O5)[C@@H]1CC[C@@H]2c1ccc2ccncc2c1
3. C[C@]12CC=C3C=C4CC[C@@H](N5CC(N)C5)C[C@]45CC[C@]3(O5)[C@@H]1CC[C@@H]2c1ccc2ccncc2c1

Response line:
1: 3; 2: 0; 3: 4

number of targets with ≥75% inhibition reading for C[C@]12CC=C3C=C4CC[C@@H](N5CCC5)C[C@]45CCC3(O5)[C@@H]1CC[C@@H]2c1ccc2ccncc2c1 : 12

---

I'd appreciate it if you could supply Average LSU (×1000) values for the items below.
- assay info: TurboSol solubility evaluation in physiological saline
- Assay type: physicochemical
- setup conditions: 3 μM; HB-PS+0.3% DMSO

Here's what some known entries look like.
Lookup result for C[C@]12CC=C3C=C4CC[C@@H](N5C[C@H](O)[C@@H](O)C5)C[C@]45CC[C@]3(O5)[C@@H]1CC[C@@H]2c1ccc2ccncc2c1 ; measured Average LSU (×1000): 6.4 LSU (×1000)

Quick note, Average LSU (×1000) for C[C@]12CC=C3C=C4CC[C@@H](O)C[C@]45CC[C@]3(O5)[C@@H]1CC[C@@H]2c1ccc2ccncc2c1 landed at 5.1 LSU (×1000)

So for C[C@]12CC=C3C=C4CC[C@@H](N5CCCC5)C[C@]45CCC3(O5)[C@@H]1CC[C@@H]2c1ccc2ccncc2c1 , the logged Average LSU (×1000) turned out to be 4.7 LSU (×1000)

Each of the following entries comes with a recorded value; kindly state Average LSU (×1000) for each.
1. C[C@]12CC=C3C=C4CC[C@@H](N5CC[C@@H](N)C5)C[C@]45CC[C@]3(O5)[C@@H]1CC[C@@H]2c1ccc2ccncc2c1
2. C[C@]12CC=C3C=C4CC[C@@H](N5CC(N)C5)C[C@]45CC[C@]3(O5)[C@@H]1CC[C@@H]2c1ccc2ccncc2c1

Response line:
1. 3.2 LSU (×1000)
2. 3.5 LSU (×1000)

---

- assay target: hERG potassium channel (Homo sapiens, UniProt Q12809)
- Sequence (Q12809 whole entry): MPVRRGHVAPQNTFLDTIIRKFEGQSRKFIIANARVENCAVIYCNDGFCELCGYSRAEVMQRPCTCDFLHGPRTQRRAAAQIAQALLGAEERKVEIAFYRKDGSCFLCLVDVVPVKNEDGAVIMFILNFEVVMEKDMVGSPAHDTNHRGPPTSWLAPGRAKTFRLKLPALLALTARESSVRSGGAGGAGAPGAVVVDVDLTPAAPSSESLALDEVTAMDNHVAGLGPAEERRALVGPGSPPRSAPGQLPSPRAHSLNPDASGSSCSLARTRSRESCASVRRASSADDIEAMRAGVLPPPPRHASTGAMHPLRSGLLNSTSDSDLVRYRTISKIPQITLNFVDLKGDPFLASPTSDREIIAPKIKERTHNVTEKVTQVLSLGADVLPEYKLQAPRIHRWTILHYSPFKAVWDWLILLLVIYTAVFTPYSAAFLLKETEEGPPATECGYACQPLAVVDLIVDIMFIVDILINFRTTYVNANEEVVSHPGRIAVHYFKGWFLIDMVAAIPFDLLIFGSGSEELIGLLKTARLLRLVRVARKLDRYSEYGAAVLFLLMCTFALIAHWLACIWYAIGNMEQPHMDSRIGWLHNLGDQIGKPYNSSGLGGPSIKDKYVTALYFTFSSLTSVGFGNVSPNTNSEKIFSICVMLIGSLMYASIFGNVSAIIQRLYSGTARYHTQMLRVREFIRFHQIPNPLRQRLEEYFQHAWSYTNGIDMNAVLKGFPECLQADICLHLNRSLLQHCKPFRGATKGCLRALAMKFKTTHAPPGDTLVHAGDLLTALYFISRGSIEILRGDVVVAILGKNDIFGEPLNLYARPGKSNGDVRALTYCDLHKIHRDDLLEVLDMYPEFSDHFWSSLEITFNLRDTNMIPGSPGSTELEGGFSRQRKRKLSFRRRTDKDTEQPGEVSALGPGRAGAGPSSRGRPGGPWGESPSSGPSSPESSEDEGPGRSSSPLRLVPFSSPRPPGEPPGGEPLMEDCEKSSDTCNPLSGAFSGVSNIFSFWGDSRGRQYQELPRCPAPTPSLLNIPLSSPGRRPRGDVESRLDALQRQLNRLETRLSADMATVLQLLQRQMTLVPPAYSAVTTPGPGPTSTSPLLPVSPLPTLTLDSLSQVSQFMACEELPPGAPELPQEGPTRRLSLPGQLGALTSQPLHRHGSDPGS
- assay info: in vitro
- setup conditions: human, Individual Data Points (% Inhibition), hERG
- Description: The in vitro effects of compounds A, B, C, D, E, and F on the hERG (human ether-à-go-go-related gene) potassium channel current (a surrogate for IKr, the rapidly activating, delayed rectifier cardiac potassium current) expressed in mammalian cells were evaluated at room temperature using the QPatch HT (Sophion Bioscience A/S, Denmark), an automatic parallel patch clamp system. The test articles were evaluated at 1 μM, 3 μM, 10 μl and 30 μM. […]
quantity: inhibition at 3 µM (%)
Give bare numbers, in %.

Please give inhibition at 3 µM for each item listed below.
1. C[C@]12CC=C3C=C4CC[C@@H](N5CC[C@@H](N)C5)C[C@]45CC[C@]3(O5)[C@@H]1CC[C@@H]2c1ccc2ccncc2c1
2. C[C@]12CC=C3C=C4CC[C@@H](N5C[C@H](O)[C@@H](O)C5)C[C@]45CC[C@]3(O5)[C@@H]1CC[C@@H]2c1ccc2ccncc2c1
3. C[C@]12CC=C3C=C4CC[C@@H](N5CC(N)C5)C[C@]45CC[C@]3(O5)[C@@H]1CC[C@@H]2c1ccc2ccncc2c1
4. C[C@]12CC=C3C=C4CC[C@@H](N5CCCC5)C[C@]45CCC3(O5)[C@@H]1CC[C@@H]2c1ccc2ccncc2c1

Response line:
1: 17.1; 2: 25.1; 3: 12.7; 4: 83.4
